Data credit: the supplement of paper PMC9732359

Assay: protein stability index of a GFP-peptide fusion (yeast GPS) (PSI 1-4); higher = more stable; sorted into four equal gates, so the index is relative within each strain
Settings: ubr1∆
Recorded protein stability index, one value per entry.
// no unit string in output, number only

Would you mind telling me what protein stability index value was observed for IHYSWSFILYYRRALQS [YML103C/NUP188] ?
1.12

---

Experiment: protein stability index of a GFP-peptide fusion (yeast GPS) (PSI 1-4); higher = more stable; sorted into four equal gates, so the index is relative within each strain
Settings: ubr1∆
Recorded protein stability index, one value per entry.

Below are worked cases with known answers.
* ASFYSVNTEKKTIEVTA [RPN3] | 1.65
* HIQVNQAPKQRRRTYRA [RPL17A] | 3.28
* KPSFSFPGKPVDVQAPT [YOR098C/NUP1] | 2.77
* CLDQMTEQFCATLNYID [SRB7] | 2.65
* LAKPVFHVGFIAKIKKV [RPO21] | 2.02
* IKQQQQQQQQQNGQQPP [YML103C/NUP188] | 2.39
* VAATITSSQKEPFFLVT [SRB8] | 2.21
* VEETEVPTVPPSQSEEQ [MED4] | 2.74

Would you mind telling me what protein stability index value was observed for AGERKIPHDLNFLQESY [TAF14] ?
2.62

Moving on to the next sequence: YLLENNQVGTDELILPL [YDL116W/NUP84]
2.89

Moving on to the next sequence: YYKNFHNSVKRYQIMLP [SNM1]
1.47

Moving on to the next sequence: EIINNKTSSQTSLSSKD [YMR153W/NUP53]
2.45

---

Assay: protein stability index of a GFP-peptide fusion (yeast GPS) (PSI 1-4); higher = more stable; sorted into four equal gates, so the index is relative within each strain
Details: pdr5∆
Could you please classify the records by protein stability index using these ranges: lower = under 2, middle = from 2 up to 3, upper = 3 and over

These solved cases illustrate the format of a correct answer.
* ESENFKIIALQPNEISF [RGR1] | middle
* PSQFGMLCTADTPEGEA [RET1] | lower
* LSTSAFMEIVLEYNVAL [YML031W/NDC1] | lower

Pending sequence:
Which category fits this record: GDDVVNDVQGIDDVQTI [RPP1]
upper

---

Recorded protein stability index, one value per entry.
Test: protein stability index of a GFP-peptide fusion (yeast GPS) (PSI 1-4); higher = more stable; sorted into four equal gates, so the index is relative within each strain
Settings: san1∆
// no unit string in output, number only

Would you mind telling me what protein stability index value was observed for PLKLSGEGPFTVKFKHM [YMR129W/POM152] ?
2.75

Moving on to the next sequence: FVPNDGCLNFVDENDEV [RPS23A]
2.78

---

Recorded protein stability index, one value per entry.
Experiment: protein stability index of a GFP-peptide fusion (yeast GPS) (PSI 1-4); higher = more stable; sorted into four equal gates, so the index is relative within each strain
Details: ubr1∆
// no unit string in output, number only

• TQQAVNLEKNYLAKLSK [IRR1] = 2.91
• IAEGKSKQDASPKPYAV [RPL8B] = 3.23
• VMYNGHTGKKLMAQIFF [RPB2] = 1.27
• QLIAKNVANVSGSTEKA [SIR3] = 2.88
• SVLDEQEQYQTNTFEGS [SNU114] = 3.31
• IETLDPALIRPGRIDRK [RPT2] = 3.02

Would you mind telling me what protein stability index value was observed for KYVHVSEVGNCSGSGMG [FAS2] ?
2.92

Moving on to the next sequence: AKRHRKILRDNIQGITK [HHF1]
3.07

Moving on to the next sequence: DENGDKNDNGGKMNNEV [SWI3]
3.33

Moving on to the next sequence: IESQNLDLIPHSSSVFK [SRB4]
2.73

Moving on to the next sequence: KGRYAPETGDHVVGRIA [RRP4]
2.67

Moving on to the next sequence: GYQWGEENKDIMNVLSE [PRP8]
3.16

Moving on to the next sequence: NLSEARLVIKEALVERR [RPB4]
3.3

Moving on to the next sequence: NLGSNVRNSFPLDEIPV [REC8]
3.06

Moving on to the next sequence: ELVFSKGVYLILSEILC [YML103C/NUP188]
1.51

Moving on to the next sequence: EGGKNQAELLQLAVKII [YJL039C/NUP192]
2.72

---

Recorded protein stability index, one value per entry.
Test: protein stability index of a GFP-peptide fusion (yeast GPS) (PSI 1-4); higher = more stable; sorted into four equal gates, so the index is relative within each strain
Details: doa10∆
// no unit string in output, number only

Below are worked cases with known answers.
• DFNQAFEGTDDNEEASV [BRN1] = 3.09
• RMRIFASNEVIAKSRYW [RPL20A] = 2
• SSLKESSPDTMKLTDLL [SNF12] = 3.09
• QISLNRLIDSMKQYSYL [RRI1] = 2.43
• SDSSSEDEVKVEGPKFT [YLR335W/NUP2] = 3.4

Would you mind telling me what protein stability index value was observed for LNYGVYLNGTLIGSIRF [RET1] ?
1.43

Moving on to the next sequence: FIFQIIEITNSNDLCSQ [SRB8]
1.39

Moving on to the next sequence: HLLRQTNAFLDSLTRAV [SNF2]
2.61

Moving on to the next sequence: HVLVGDLIKFSAETLSE [FAS1]
2.38

Moving on to the next sequence: MSQSTASLVPEGNQGSL [MED8]
3.16

---

Test: protein stability index of a GFP-peptide fusion (yeast GPS) (PSI 1-4); higher = more stable; sorted into four equal gates, so the index is relative within each strain
Conditions: ubr1∆
So basically: protein stability index at 3 or higher? That is Satisfied. Lower than 3? That is Not satisfied.

- NDINISSIENNINNNIN [MED2]: Satisfied
- MSSTNGNAPATPSSDQN [SOH1]: Satisfied
- QDNHHITKVTENLFSKE [YMR129W/POM152]: Satisfied
- GGRYVYPVHEAHKGQIV [SNU114]: Not satisfied

Pending sequence:
Identify whether the reported protein stability index of the following sequence is 3 or greater: KTQEYYTQYTNDYLEKH [CDC53]
Satisfied

---

Experiment: protein stability index of a GFP-peptide fusion (yeast GPS) (PSI 1-4); higher = more stable; sorted into four equal gates, so the index is relative within each strain
Settings: pdr5∆
REPORTED ENDPOINT: protein stability index
// no unit string in output, number only

• ATQVKTDNTVDKFDFYK [RPT3] = 2.98
• DNHSGDATANATANATA [DSN1] = 3.08
• LSILKGDYSQATVLSRK [RPN5] = 3.02

Would you mind telling me what protein stability index value was observed for FIEDLAPEQQVQQFAQL [UBP6] ?
3.02

Moving on to the next sequence: AGRKFKSRRCDDMLYYI [POP4]
3.06

Moving on to the next sequence: DFELEISWCSLSETNGL [PRE10]
2.93

Moving on to the next sequence: SGNNYNDINISSIENNI [MED2]
3.02

---

Experiment: protein stability index of a GFP-peptide fusion (yeast GPS) (PSI 1-4); higher = more stable; sorted into four equal gates, so the index is relative within each strain
Conditions: san1∆
Recorded protein stability index, one value per entry.
// no unit string in output, number only

• LAKPVFHVGFIAKIKKV [RPO21] = 1.78
• VIRIPMQENDKINQERL [CSI1] = 2.37
• PASKHDKEVVYFDEWTI [RPC34] = 3.04

Would you mind telling me what protein stability index value was observed for TTDANGSKENYQELGSL [MED2] ?
3.15

---

Assay: protein stability index of a GFP-peptide fusion (yeast GPS) (PSI 1-4); higher = more stable; sorted into four equal gates, so the index is relative within each strain
Conditions: pdr5∆
Recorded protein stability index, one value per entry.

Below are worked cases with known answers.
• KKRKAGRPRGRPKKVKL [SNF2] = 3.09
• AVPAATPANTNNSTSNA [SWI1] = 2.99
• PQIVVPDAQNELPKFIL [DIS3] = 3.09

Would you mind telling me what protein stability index value was observed for REDEFGSIPSLTTQFVT [YDL088C/ASM4] ?
2.92

---

Recorded protein stability index, one value per entry.
Assay: protein stability index of a GFP-peptide fusion (yeast GPS) (PSI 1-4); higher = more stable; sorted into four equal gates, so the index is relative within each strain
Settings: doa10∆

Below are worked cases with known answers.
- DICQIDTNAPVAATITS [SRB8]: 2.29
- CLSDYTKKISNFNSSLH [YJL039C/NUP192]: 1.56
- GESIMSEEPTDFGFDLD [MCD1]: 3.1
- LKFLYLLDAYSHIESDS [MED1]: 2.46
- EYALEAVKRGTCAVGVK [PRE6]: 1.93

Below: the item to evaluate.
Would you mind telling me what protein stability index value was observed for ANVLDPSLRKLIESGIG [BRR2] ?
1.87
